Molecular target: T1, IL10Rα/IL2Rγ receptor (human, UniProt Q13651 22-578; P31785 23-369)
T1 sequence (looked up) 1: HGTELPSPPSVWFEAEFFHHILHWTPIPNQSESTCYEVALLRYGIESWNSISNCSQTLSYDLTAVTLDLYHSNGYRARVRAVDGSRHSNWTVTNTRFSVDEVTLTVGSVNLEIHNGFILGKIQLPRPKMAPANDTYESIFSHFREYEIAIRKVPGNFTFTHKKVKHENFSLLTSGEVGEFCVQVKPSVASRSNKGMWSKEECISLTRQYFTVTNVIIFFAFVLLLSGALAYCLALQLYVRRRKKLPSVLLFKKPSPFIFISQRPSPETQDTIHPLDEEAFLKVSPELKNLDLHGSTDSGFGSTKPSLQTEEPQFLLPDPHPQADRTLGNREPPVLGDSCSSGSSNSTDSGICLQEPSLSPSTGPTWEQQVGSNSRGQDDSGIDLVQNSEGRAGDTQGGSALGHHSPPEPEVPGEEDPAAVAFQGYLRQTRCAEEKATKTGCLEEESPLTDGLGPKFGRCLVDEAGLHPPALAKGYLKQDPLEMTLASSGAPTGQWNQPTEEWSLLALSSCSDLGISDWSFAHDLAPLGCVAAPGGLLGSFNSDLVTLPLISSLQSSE
T1 sequence (looked up) 2: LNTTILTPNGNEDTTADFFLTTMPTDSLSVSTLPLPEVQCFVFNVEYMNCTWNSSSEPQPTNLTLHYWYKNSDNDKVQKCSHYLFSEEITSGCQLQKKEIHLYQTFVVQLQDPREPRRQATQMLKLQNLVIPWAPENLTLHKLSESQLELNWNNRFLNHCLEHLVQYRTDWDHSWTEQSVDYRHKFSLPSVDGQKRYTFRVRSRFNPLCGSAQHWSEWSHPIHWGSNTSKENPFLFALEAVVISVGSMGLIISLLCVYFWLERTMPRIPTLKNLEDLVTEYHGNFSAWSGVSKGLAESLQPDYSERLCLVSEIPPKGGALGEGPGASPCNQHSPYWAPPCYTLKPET
Experiment: cell-based or functional assay
assay-metric: pSTAT3 MFI, NK cells, 1 nM (unstimulated 1315)

// known answers, use as guide
>  <binder>
DR441(DR236-DR231) (bispecific antibody) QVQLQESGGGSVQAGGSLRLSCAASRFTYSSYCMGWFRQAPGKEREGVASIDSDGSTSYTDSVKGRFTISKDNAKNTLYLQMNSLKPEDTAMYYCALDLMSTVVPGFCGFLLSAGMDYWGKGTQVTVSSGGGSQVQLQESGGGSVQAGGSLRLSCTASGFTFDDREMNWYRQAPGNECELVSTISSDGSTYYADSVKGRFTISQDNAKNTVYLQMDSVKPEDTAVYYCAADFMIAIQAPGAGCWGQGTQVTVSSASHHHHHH

>  <reported-measurement>
1440 MFI

$$$$
>  <binder>
DR395(DR229-DR239) (bispecific antibody) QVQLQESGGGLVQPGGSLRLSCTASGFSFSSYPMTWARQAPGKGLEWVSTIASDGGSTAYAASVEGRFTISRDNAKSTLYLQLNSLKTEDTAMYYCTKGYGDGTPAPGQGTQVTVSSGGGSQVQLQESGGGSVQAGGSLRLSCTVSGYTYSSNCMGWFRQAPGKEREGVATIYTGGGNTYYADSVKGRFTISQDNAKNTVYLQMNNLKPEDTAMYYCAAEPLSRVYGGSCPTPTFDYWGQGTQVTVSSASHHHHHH

>  <reported-measurement>
1640 MFI

$$$$

stdin: Please look at this binder and report its pSTAT3 MFI, NK cells, 1 nM (unstimulated 1315): DR465(DR240-DR231) (bispecific antibody) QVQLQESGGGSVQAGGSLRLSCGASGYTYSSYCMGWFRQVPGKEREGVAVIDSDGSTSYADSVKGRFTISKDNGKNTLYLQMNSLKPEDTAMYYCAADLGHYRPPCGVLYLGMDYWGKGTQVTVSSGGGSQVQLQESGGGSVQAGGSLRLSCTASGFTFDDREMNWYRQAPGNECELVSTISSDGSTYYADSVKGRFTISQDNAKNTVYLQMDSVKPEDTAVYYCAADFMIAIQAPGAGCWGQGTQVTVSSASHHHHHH
stdout: 1520 MFI

stdin: Please look at this binder and report its pSTAT3 MFI, NK cells, 1 nM (unstimulated 1315): DR471(DR241-DR231) (bispecific antibody) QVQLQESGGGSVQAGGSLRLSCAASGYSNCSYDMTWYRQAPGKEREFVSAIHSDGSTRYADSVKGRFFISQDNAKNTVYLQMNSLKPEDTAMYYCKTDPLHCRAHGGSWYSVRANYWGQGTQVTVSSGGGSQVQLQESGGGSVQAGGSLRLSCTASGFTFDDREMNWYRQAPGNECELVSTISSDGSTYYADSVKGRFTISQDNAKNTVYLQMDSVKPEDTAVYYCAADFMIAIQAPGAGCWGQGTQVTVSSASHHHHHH
stdout: 1530 MFI
